Target: Fuc(a1-2)[GalNAc(a1-3)]Gal(b1-4)GlcNAc(b1-3)GalNAc
Assay: glycan array binding signal (z-score within array); higher = stronger binding
Conditions: glycan notation: IUPAC condensed, linker removed
About 410 targets per protein were measured; listed, in parts, are those with the strongest signals and a random draw of the rest.
RESULT TYPE: glycan array binding signal (z-score)
Reply: number alone, nothing else.

Please give measured glycan array binding signal (z-score) of the following entry: PILRa (Homo sapiens), Q9UKJ1 (protein) MGRPLLLPLLPLLLPPAFLQPSGSTGSGPSYLYGVTQPKHLSASMGGSVEIPFSFYYPWELATAPDVRISWRRGHFHRQSFYSTRPPSIHKDYVNRLFLNWTEGQKSGFLRISNLQKQDQSVYFCRVELDTRSSGRQQWQSIEGTKLSITQAVTTTTQRPSSMTTTWRLSSTTTTTGLRVTQGKRRSDSWHISLETAVGVAVAVTVLGIMILGLICLLRWRRRKGQQRTKATTPAREPFQNTEEPYENIRNEGQNTDPKLNPKDDGIVYASLALSSSTSPRAPPSHRPLKSPQNETLYSVLKA
-0.194

Please give measured glycan array binding signal (z-score) of the following entry: HML-Native (Hypnea musciformis), P84871 (protein) QKFCTLDIAPVCCQIVIGGGMYTAGNACMCEGFVSGVGRCENPKECPCTREAQIPSCCSSRWGLVSVTGKCACDCLGGTVAFPEPCPSPY
-0.302

Please give measured glycan array binding signal (z-score) of the following entry: KISKRILTGKK [NK11 (Sus scrofa)]
-1.25

Please give measured glycan array binding signal (z-score) of the following entry: Gal 12 (Homo sapiens), Q96DT0 (protein) MSQPSGGRAPGTRIYSWSCPTVMSPGEKLDPIPDSFILQPPVFHPVVPYVTTIFGGLHAGKMVMLQGVVPLDAHRFQVDFQCGCSLCPRPDIAFHFNPRFHTTKPHVICNTLHGGRWQREARWPHLALRRGSSFLILFLFGNEEVKVSVNGQHFLHFRYRLPLSHVDTLGIFGDILVEAVGFLNINPFVEGSREYPAGHPFLLMSPRLEVPCSHALPQGLSPGQVIIVRGLVLQEPKHFTVSLRDQAAHAPVTLRASFADRTLAWISRWGQKKLISAPFLFYPQRFFEVLLLFQEGGLKLALNGQGLGATSMNQQALEQLRELRISGSVQLYCVHS
0.193

Please give measured glycan array binding signal (z-score) of the following entry: LBL-152 (Laetiporus bicolor), B0D650 (protein) MSNEYNPPLGIAFRLCGLASDRVLFSRVSPSPEVFHHPKSEVYPDQWFVAIPGSGQNAGCYAIKSKNTGKVLFSRMSPDPRVGHIDGDGKYPDNWFKFEAGSGKYAGYFRLRAVASDTVLVSRTSTGTDTQVINYPATSAKYDDQYFTILFDHHHHHH
-0.155

Please give measured glycan array binding signal (z-score) of the following entry: MAA (Maackia amurensis), P0DKL3 (protein) MATSNSKPTQVLLATFLTFFFLLLNNVNSSDELSFTINNFVPNEADLLFQGEASVSSTGVLQLTRVENGQPQKYSVGRALYAAPVRIWDNTTGSVASFSTSFTFVVKAPNPDITSDGLAFYLAPPDSQIPSGSVSKYLGLFNNSNSDSSNQIVAVELDTYFAHSYDPWDPNYRHIGIDVNGIESIKTVQWDWINGGVAFATITYLAPNKTLIASLVYPSNQTTFSVAASVDLKEILPEWVRVGFSAATGYPTEVETHDVLSWSFTSTLEANCDAATENNVHIARYTA
-0.128

Please give measured glycan array binding signal (z-score) of the following entry: FGF1 (Homo sapiens), P05230 (protein) MAEGEITTFTALTEKFNLPPGNYKKPKLLYSNGGHFLRILPDGTVDGTRDRSDQHIQLQLSAESVGEVYIKSTETGQYLAMTDGLLYGSQTPNEECLFLERLEENHYNTYISKHAEKNWFVGLKKNGSCKRGPRTHYGQAILFLPLPASSED
-0.242

Please give measured glycan array binding signal (z-score) of the following entry: LTL (Lotus tetragonolobus), P19664 (protein) VSFNYTEFKDDGSLILQGDAKIWTDGRLAMPTDPLVNNPKTTRSAGRALYATPVPIWDSATGNVASFVTSFNFLFVIRELKYTPTDGLVFFLAPVGTEIPSGSTGGFLGIFDGSNGFNQFVAVEFDSYHNIWDPKSLRSSHVGIDVNSIMSLKAVNWNRVSGSLEKATIIYDSQTNILSVVMTSQNGQITTIYGTIDLKTVLPEKVSVGFSATTGNPEREKHDIYSWSFTSTLKEPEEQA
-0.219

Please give measured glycan array binding signal (z-score) of the following entry: Cohesin-mDCIR (Macaca mulatta) (protein) GLDDLDAVRIKVDTVNAKPGDTVRIPVRFSGIPSKGIANCDFVYSYDPNVLEIIEIEPGDIIVDPNPDKSFDTAVYPDRKIIVFLFAEDSGTGAYAITKDGVFATIVAKVKEGAPNGLSVIKFVEVGGFANNDLVEQKTQFFDGGVNVGDTTEPATPTTPVTTPTTTDDLDAASFQKYSQLLEKMTTKDLVHTTLECVKKNMTTEETAWSCCPKNWKPFSSNCYFISTESASWQKSEKDCARMEAHLLVINTREEQDFIFQNLQEESAYFVGLSDPEGQRHWQWVDRTPYNESSTFWHPHEPSDPDERCVVLNFRKTPKRWGWNDVHCIVHQRSVCEMMKIHLHHHHHH
-0.338
